Just for reference, ChEMBL document CHEMBL4138251 is where these values come from.

# target-under-test: Transient receptor potential cation channel subfamily A member 1 (Rattus norvegicus)
# Sequence (Q6RI86 whole entry): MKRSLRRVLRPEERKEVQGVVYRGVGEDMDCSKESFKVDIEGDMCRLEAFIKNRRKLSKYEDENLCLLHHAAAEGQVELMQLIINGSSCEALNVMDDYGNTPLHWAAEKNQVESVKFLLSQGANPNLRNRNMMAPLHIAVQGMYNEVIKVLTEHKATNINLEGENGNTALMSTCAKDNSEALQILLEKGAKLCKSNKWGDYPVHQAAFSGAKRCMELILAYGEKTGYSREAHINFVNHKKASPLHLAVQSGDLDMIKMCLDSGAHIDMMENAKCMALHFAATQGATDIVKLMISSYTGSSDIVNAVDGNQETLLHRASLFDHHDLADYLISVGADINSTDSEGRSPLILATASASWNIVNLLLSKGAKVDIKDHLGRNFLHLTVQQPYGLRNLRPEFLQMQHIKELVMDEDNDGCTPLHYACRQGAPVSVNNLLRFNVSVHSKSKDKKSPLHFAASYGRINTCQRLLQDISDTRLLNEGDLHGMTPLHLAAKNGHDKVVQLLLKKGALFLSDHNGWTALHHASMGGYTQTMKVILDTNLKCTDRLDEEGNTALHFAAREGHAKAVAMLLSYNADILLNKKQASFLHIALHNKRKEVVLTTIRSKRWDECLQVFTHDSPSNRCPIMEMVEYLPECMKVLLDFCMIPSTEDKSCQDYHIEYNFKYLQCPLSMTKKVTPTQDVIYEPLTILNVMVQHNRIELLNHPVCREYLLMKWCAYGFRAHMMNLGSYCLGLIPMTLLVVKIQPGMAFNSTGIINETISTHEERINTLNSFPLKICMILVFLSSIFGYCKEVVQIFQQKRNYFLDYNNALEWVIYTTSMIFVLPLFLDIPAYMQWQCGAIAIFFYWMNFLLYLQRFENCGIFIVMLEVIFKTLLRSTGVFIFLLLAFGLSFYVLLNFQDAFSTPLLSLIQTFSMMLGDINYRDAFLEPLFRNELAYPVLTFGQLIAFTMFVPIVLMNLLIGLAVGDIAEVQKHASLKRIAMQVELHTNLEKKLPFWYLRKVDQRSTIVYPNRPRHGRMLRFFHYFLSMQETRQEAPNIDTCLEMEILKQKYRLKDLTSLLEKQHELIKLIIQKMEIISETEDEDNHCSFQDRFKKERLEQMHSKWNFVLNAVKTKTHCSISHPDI
# test-protocol: Agonist activity at recombinant rat TRPA1 expressed in HEK293 cells assessed as increase in intracellular calcium level by Fluo4-AM probe based fluorescence assay
measured-metric: pEC50
Quick note: pEC50 means taking -log10 of the concentration in moles per liter.

Given `CCCCCc1cc(O)c2c(c1)OC(C)(C)c1ccc(C)cc1-2` , respond with its pEC50.
6.74

Given `CCCc1cc(O)c2c(c1)OC(C)(C)c1ccc(C)cc1-2` , respond with its pEC50.
6.70

----------
# target-under-test: Cannabinoid receptor 1 (Homo sapiens)
# Sequence (P21554 whole entry): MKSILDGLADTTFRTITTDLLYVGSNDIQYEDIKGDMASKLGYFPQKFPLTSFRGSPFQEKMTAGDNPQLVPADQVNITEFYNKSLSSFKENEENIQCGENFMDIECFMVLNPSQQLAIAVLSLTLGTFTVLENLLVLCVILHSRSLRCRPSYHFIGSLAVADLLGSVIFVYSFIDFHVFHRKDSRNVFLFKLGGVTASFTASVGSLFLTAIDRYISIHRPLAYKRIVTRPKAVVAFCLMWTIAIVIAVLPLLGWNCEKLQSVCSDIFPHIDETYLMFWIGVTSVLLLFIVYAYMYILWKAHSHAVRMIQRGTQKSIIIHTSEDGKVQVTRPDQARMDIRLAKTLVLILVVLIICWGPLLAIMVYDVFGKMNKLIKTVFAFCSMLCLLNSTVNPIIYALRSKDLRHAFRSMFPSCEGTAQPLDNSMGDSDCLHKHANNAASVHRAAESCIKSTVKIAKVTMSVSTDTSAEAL
# test-protocol: Displacement of 3H-CP-55940 from recombinant full length human CB1 receptor expressed in HEK293 cell membranes after 90 mins by topcount scintillation counting analysis
measured-metric: pEC50
Quick note: pEC50 means taking -log10 of the concentration in moles per liter.

Provide pEC50, tested on Cannabinoid receptor 1 (Homo sapiens), for `CCCc1cc(O)c2c(c1)OC(C)(C)c1ccc(C)cc1-2` .
6.25

Provide pEC50, tested on Cannabinoid receptor 1 (Homo sapiens), for `CCCCCc1cc(O)c2c(c1)OC(C)(C)c1ccc(C)cc1-2` .
7.12
